- Experiment: 14-day toxicity test with toxicokinetics in SD rats
- Type: in vivo
- Measurement parameters: male, SD, rat, blood, 100 mg/kg, male SD rats, 100 mg/kg once a day for 14 days, last administration; read-out: Cmax Last administration
Outcome measure: Cmax (µg/mL)

[
  {
    "Molecule": "O=C(O)[C@H]1C[C@@H]1Cn1c(=O)[nH]/c(=N\\c2ccc(Oc3ccc(F)cn3)cc2)n(Cc2ccc(Cl)cc2)c1=O [Compound H5-P1]",
    "Output unit": "µg/mL",
    "Observed result": 162
  },
  {
    "Molecule": "C[C@@H](Cn1c(=O)nc(Nc2ccc(Oc3ccccn3)cc2)n(Cc2ccc(Cl)cc2)c1=O)C(=O)O [Compound D1, reference compound]",
    "Output unit": "µg/mL",
    "Observed result": 188
  }
]
